Target: T1, PUF4 RNA-binding domain (Saccharomyces cerevisiae, UniProt P25339 537-888)
T1 sequence: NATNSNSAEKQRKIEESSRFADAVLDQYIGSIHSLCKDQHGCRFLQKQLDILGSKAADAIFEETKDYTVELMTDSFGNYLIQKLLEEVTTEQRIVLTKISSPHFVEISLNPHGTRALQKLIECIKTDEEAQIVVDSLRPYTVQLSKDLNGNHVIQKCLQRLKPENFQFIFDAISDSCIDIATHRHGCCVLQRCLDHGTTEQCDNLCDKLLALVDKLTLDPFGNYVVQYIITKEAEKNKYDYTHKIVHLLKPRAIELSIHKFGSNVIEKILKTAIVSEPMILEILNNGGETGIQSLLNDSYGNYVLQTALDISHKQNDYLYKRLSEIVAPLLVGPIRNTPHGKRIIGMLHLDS
Experiment: Mg; RNA-MaP; 20 mM Na-HEPES pH 7.4, 30 mM KOAc, 0.75 mM MgCl2, 0.1% Tween-20, 5% glycerol, 0.1 mg/mL BSA, 2 mM DTT; 25 C; 0.0125-409.6 nM protein
Details: tags: N-His6-TEV cleaved; C-SNAP kept, Cy3B-labelled; label: tethered on chip by stalled RNA polymerase
assay_readout: pKd
pKd here is simply -log10 of the concentration when that concentration is written in mol/L.

Memo: Id_ii_S2_P3E.3_K3.2_C3.2_[T-1C]_H3.2_A3.1_F3.1_T3.2_[T9C] (ssRNA) RNA: UUUGAUUAAUAUGAUAUCGUUCUUUCUCCUAUAUAUACAUUCUUUCUCGAUAUCAUAUUAAUCUUU , reported pKd: 7.07

Memo: Id_ii_S2_P3E.2_K3.1_C3.2_[C-2T]_[T-1A]_H3.1_A3.1_F3.1_T3.2_[T9A]_[A10T] (ssRNA) RNA: UUUGAUUAAUAUGAUAUCGUUCUUUCUUAUGUAUAUAAUUUCUUUCUCGAUAUCAUAUUAAUCUUU , reported pKd: 7.85

Memo: Ie_S4_P4E.1_K4.1_C4.1_H4.1_[+4TCTC]_A4.1_F4.1_T4.1 (ssRNA) RNA: UUUGACAACUGAUCGUUCUUUCUUGUAUCUCUAUUAUUCUUUCUCGAUCAGUUGUCUUU , reported pKd: 8.32
